Target: human α1B‐adrenoceptor (Homo sapiens, UniProt P35368)
Construct: expressed in transfected cells; host or cells: CHO-K1
Sequence (P35368 whole entry): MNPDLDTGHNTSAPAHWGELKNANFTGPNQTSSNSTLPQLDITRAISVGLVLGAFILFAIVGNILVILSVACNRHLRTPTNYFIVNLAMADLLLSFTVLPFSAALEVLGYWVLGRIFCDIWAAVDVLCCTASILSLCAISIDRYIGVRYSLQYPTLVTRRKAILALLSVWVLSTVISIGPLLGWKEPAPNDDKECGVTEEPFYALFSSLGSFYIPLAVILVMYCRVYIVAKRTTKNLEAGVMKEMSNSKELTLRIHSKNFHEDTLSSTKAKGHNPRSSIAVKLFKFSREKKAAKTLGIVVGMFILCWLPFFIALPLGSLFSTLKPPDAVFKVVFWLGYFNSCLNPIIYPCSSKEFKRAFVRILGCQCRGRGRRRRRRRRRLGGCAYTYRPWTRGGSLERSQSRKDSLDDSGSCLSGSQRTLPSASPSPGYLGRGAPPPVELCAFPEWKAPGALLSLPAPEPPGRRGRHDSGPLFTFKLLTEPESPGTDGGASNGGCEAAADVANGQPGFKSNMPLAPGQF
Assay: ERK1/2‐phosphorylation (Surefire Alphascreen), CHO‐α1B cells
Format: cell-based
Details: ERK1/2‐phosphorylation Log EC50

- compound: "CC(Cc1ccc(O)cc1)NCC(O)c1cc(O)cc(O)c1 (stereo not shown)"
  unitAnnotation: "nM"
  EC50: 2750

====

Target: human α1D‐adrenoceptor (full length) (Homo sapiens, UniProt P25100)
Construct: human α1D‐adrenoceptor (full length) were used; expressed in transfected cells; host or cells: CHO-K1
Sequence (P25100 1-572): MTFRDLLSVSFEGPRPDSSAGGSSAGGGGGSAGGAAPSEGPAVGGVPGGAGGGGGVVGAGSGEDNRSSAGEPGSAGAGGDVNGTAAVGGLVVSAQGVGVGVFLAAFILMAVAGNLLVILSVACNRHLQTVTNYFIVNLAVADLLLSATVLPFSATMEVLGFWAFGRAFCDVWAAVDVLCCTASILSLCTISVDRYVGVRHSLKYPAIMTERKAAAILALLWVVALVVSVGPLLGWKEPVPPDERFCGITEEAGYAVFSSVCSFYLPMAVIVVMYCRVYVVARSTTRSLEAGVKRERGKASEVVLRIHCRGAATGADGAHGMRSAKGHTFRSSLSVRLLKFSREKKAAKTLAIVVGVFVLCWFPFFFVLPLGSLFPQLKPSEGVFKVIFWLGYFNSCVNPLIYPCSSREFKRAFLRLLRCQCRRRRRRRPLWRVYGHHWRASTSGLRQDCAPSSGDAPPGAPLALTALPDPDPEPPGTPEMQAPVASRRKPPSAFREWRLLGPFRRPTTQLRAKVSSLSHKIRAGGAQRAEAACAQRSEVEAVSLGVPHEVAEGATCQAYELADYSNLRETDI
Experiment: Intracellular free calcium mobilization, CHO‐α1D cells
Format: cell-based
Details: CHO‐α1D cells; maximal response as % of 10 µM ionomycin
propertyName: Intracellular calcium release % ionomycin

- compound: "CCNCC(O)c1cccc(O)c1 (stereo not drawn)"
  result: "13.7 ± 1.8%"
- compound: "CC(CCc1ccc(O)cc1)NCCc1ccc(O)c(O)c1 (stereo not drawn)"
  result: "10.6 ± 1.8%"
- compound: "C=CCN1CCc2nc(N)sc2CC1"
  result: "No response"
- compound: "COc1ccccc1N1CCN(CCN2C(=O)c3ccccc3C(C)(C)C2=O)CC1"
  result: "No response"
- compound: "c1ccc(C2CC2)c(OCC2=NCCN2)c1"
  result: "17.3 ± 3.8%"
- compound: "COc1ccccc1N1CCN(CC2CN3C(=O)N(C)c4ccccc4C3=N2)CC1 (stereo not drawn)"
  result: "No response"

====

Target: human α1B‐adrenoceptor (Homo sapiens)
Construct: expressed in transfected cells; host or cells: CHO-K1
Test: Intracellular free calcium mobilization, CHO‐α1B cells
Assay type: cell-based
Conditions: CHO‐α1B cells; maximal response as % of 10 µM ionomycin response
Each item that follows carries a reported Intracellular calcium release % ionomycin.
propertyName: Intracellular calcium release % ionomycin (%)

- molecule: "c1ccc(C2CC2)c(OCC2=NCCN2)c1 [Cirazoline]"
  numericValue: 53.3
- molecule: "NC[C@H](O)c1ccc(O)c(O)c1 [Noradrenaline]"
  numericValue: 62.5
- molecule: "CNC[C@H](O)c1cccc(O)c1 [R‐phenylephrine]"
  numericValue: 67.0
- molecule: "NCC(O)c1ccc(O)cc1 (centres unmarked) [Octopamine]"
  numericValue: 54.9
- molecule: "COc1ccc(OC)c(C(O)C(C)N)c1 (centres unmarked) [Methoxamine]"
  numericValue: 59.1
- molecule: "CC(C)NCC(O)c1ccc(O)c(O)c1 (centres unmarked) [Isoprenaline]"
  numericValue: 53.9
- molecule: "N=C(N)NC(=O)Cc1c(Cl)cccc1Cl [Guanfacine]"
  numericValue: 59.0
- molecule: "CCNCC(O)c1cccc(O)c1 (centres unmarked) [Etilefrine]"
  numericValue: 61.1

====

Molecular target: human α1B‐adrenoceptor (Homo sapiens, UniProt P35368)
Construct: expressed in transfected cells; host or cells: CHO-K1
Experiment: Intracellular free calcium mobilization, CHO‐α1B cells
Assay type: cell-based
Intracellular calcium release % ionomycin: recorded values
propertyName: Intracellular calcium release % ionomycin (%)

- compound: "Brc1c(NC2=NCCN2)ccc2nccnc12 [UK14304]"
  unitAnnotation: "%"
  numericValue: 27.5
- compound: "Nc1cc(Cl)c(N=C2NCCN2)c(Cl)c1 [para‐amino‐clonidine]"
  unitAnnotation: "%"
  numericValue: 33.7
- compound: "Clc1cccc(Cl)c1N=C1NCCN1 [Clonidine]"
  unitAnnotation: "%"
  numericValue: 45.4
- compound: "Brc1c(NC2=NCCN2)ccc2nccnc12 [Brimonidine]"
  unitAnnotation: "%"
  numericValue: 35.8
- compound: "Cc1cccc(C(C)c2cnc[nH]2)c1C (centres unmarked) [Medetomidine]"
  unitAnnotation: "%"
  numericValue: 43.0
- compound: "CNCC(O)c1ccc(O)cc1 (centres unmarked) [Synephrine]"
  unitAnnotation: "%"
  numericValue: 57.5
- compound: "C=CCc1ccccc1OC(C)C1=NCCN1 (centres unmarked) [Allyphenyline]"
  unitAnnotation: "%"
  numericValue: 39.9
- compound: "Cc1cccc([C@H](C)c2cnc[nH]2)c1C [Dexmedetomidine]"
  unitAnnotation: "%"
  numericValue: 43.6
- compound: "Cc1cccc(C)c1N=C1NCCCS1 [Xylazine]"
  unitAnnotation: "%"
  numericValue: 30.4
- compound: "CC(N)C(O)c1ccc(O)c(O)c1 (stereo not drawn) [α‐Methylnorepinephrine]"
  unitAnnotation: "%"
  numericValue: 69.1

====

In this section, each of the compounds is paired with its reported Affinity selectivity ratio α1B vs α1D.
Target: human α1D‐adrenoceptor (full length) (Homo sapiens, UniProt P25100)
Construct: human α1D‐adrenoceptor (full length) were used; expressed in transfected cells; host or cells: CHO-K1
Test: ^3H‐prazosin whole‐cell radioligand binding, CHO‐α1D cells

- compound: "Cc1cc(C(C)(C)C)cc(C)c1CC1=NCCN1"
  unitAnnotation: "fold"
  relationSign: "="
  Affinity selectivity ratio α1B vs α1D: 1.2
- compound: "Cc1ccc(/N=C/N(C)/C=N/c2ccc(C)cc2C)c(C)c1"
  unitAnnotation: "fold"
  relationSign: ">"
  Affinity selectivity ratio α1B vs α1D: 12.0
- compound: "C=CCc1ccccc1OC(C)C1=NCCN1 (centres unmarked)"
  unitAnnotation: "fold"
  relationSign: "="
  Affinity selectivity ratio α1B vs α1D: 5.5
- compound: "CN1C[C@H](C(=O)N[C@]2(C)O[C@@]3(O)[C@@H]4CCCN4C(=O)[C@H](Cc4ccccc4)N3C2=O)C[C@@H]2c3cccc4[nH]cc(c34)C[C@H]21 [Dihydroergotamine]"
  unitAnnotation: "fold"
  relationSign: "="
  Affinity selectivity ratio α1B vs α1D: 1.9
- compound: "CN[C@@H](C)[C@H](O)c1ccccc1"
  unitAnnotation: "fold"
  relationSign: ">"
  Affinity selectivity ratio α1B vs α1D: 3.7

====

Target: human α1D‐adrenoceptor (full length) (Homo sapiens, UniProt P25100)
Construct: human α1D‐adrenoceptor (full length) were used; expressed in transfected cells; host or cells: CHO-K1
Test: Intracellular free calcium mobilization, CHO‐α1D cells
Assay type: cell-based
Conditions: CHO‐α1D cells; response at 100 µM ligand (no EC50 given)
satisfied means recorded Intracellular calcium release % Ionomycin at 100 µM is 4% or above; not satisfied means it is below 4%.

- compound: "Clc1ccc2nsnc2c1NC1=NCCN1"
  labelClass: "not satisfied"
- compound: "c1ccc2c(c1)CCCC2C1=NCCN1 (stereo not drawn) [Tetrahydrozoline]"
  labelClass: "not satisfied"
- compound: "c1ccc2c(c1)OCC(C1=NCCN1)O2 (stereo not drawn)"
  labelClass: "satisfied"
- compound: "COc1ccccc1N1CCN(CCN2C(=O)CC3(CCCC3)CC2=O)CC1"
  labelClass: "satisfied"
- compound: "CC1c2ccccc2CN1CC1=NCCN1 (stereo not drawn)"
  labelClass: "satisfied"
- compound: "CC(C)NCC(O)c1ccc(O)c(O)c1 (stereo not drawn)"
  labelClass: "not satisfied"

====

Below, each of the molecules is paired with its reported EC50 value.
Target: human α1D‐adrenoceptor (full length) (Homo sapiens)
Construct: human α1D‐adrenoceptor (full length) were used; expressed in transfected cells; host or cells: CHO-K1
Experiment: ERK1/2‐phosphorylation (Surefire Alphascreen), CHO‐α1D cells
Assay type: cell-based

- molecule: "C=CCc1ccccc1OC(C)C1=NCCN1 (centres unmarked) [Allyphenyline]"
  unitAnnotation: "µM"
  EC50: 6.92
- molecule: "CC(Cc1ccc(O)cc1)NCC(O)c1cc(O)cc(O)c1 (centres unmarked) [Fenoterol]"
  unitAnnotation: "µM"
  EC50: 3.98

====

Target: human α1A‐adrenoceptor (Homo sapiens)
Construct: expressed in transfected cells; host or cells: CHO-K1
Sequence (P35348 1-466): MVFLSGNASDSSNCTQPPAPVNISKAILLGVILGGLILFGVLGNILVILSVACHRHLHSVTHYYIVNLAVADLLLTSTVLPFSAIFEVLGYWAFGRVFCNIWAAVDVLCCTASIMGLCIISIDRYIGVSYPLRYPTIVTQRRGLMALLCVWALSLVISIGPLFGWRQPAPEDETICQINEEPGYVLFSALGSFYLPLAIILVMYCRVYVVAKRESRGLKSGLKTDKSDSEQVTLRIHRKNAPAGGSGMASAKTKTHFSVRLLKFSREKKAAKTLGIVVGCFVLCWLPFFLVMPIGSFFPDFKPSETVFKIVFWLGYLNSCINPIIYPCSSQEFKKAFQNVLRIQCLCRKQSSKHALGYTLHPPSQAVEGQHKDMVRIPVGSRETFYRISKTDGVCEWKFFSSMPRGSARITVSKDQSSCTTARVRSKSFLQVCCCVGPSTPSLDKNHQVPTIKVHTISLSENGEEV
Experiment: ^3H‐cAMP accumulation in the presence of 10 μM forskolin, CHO‐α1A cells
Format: cell-based
Details: CHO‐α1A cells; fold increase of the forskolin response
// assign MET if cAMP accumulation (in presence of forskolin) Fold increase falls strictly below 2 fold, else NOT MET (ties count as NOT MET)

- molecule: "Cc1cccc([C@H](C)c2cnc[nH]2)c1C"
  labelClass: "NOT MET"
- molecule: "Cc1cccc(C(C)c2cnc[nH]2)c1C (stereo not drawn)"
  labelClass: "NOT MET"
- molecule: "N=C(N)NC(=O)Cc1c(Cl)cccc1Cl"
  labelClass: "NOT MET"
- molecule: "CCC1(C2=NCCN2)Cc2ccccc2O1 (stereo not drawn)"
  labelClass: "MET"
